Test system: Scentless camomile (Matricaria inodora)
Assay: Post-emergence herbicidal activity, MATIN
Type: in vivo
Details: one-leaf stage, 80 g/ha, scored visually after approximately 3 weeks, 100% = plants have died
# herbicidal activity in percent, MATIN values compiled below
Numeric answer only, unit % assumed.

COc1cc(OC)nc(NC(=O)NS(=O)(=O)c2cccnc2C2=NOCCO2)n1 [Ic-1] = 90
COc1cc(C)nc(NC(=O)NS(=O)(=O)c2cnccc2C2=NOCCO2)n1 [Ia-9] = 100
COc1cc(OC)nc(NC(=O)NS(=O)(=O)c2cnccc2C2=NOCCO2)n1 [Ia-2] = 90

# input for lookup
Q: Requested field: herbicidal activity in percent, MATIN. Item: Cc1cc(C)nc(NC(=O)NS(=O)(=O)c2cnccc2C2=NOCCO2)n1 [Ia-3]
A: 100

---

Recorded herbicidal activity in percent, XANST for the following molecules
Test system: Rough cocklebear (Xanthium strumarium)
Assay: Post-emergence herbicidal activity, XANST
Assay type: in vivo
Conditions: one-leaf stage, 80 g/ha, scored visually after approximately 3 weeks, 100% = plants have died
Answer format: numeric, % implied, no suffix.

Examples with answers:
Cc1cc(C)nc(NC(=O)NS(=O)(=O)c2cnccc2C2=NOCCO2)n1 = 90
COc1cc(C)nc(NC(=O)NS(=O)(=O)c2cnccc2C2=NOCCO2)n1 = 100
COc1cc(OC)nc(NC(=O)NS(=O)(=O)c2cccnc2C2=NOCCO2)n1 = 90

Now look at this entry.
Q: Any idea what herbicidal activity in percent, XANST was measured for `COc1cc(OC)nc(NC(=O)NS(=O)(=O)c2cnccc2C2=NOCCO2)n1` ?
A: 100

---

Below, each entry is listed with its recorded herbicidal activity in percent, VIOTR.
Test system: Wild pansy (Viola tricolor)
Experiment: Pre-emergence herbicidal activity, VIOTR
Type: in vivo
Details: 80 g/ha, scored visually after approximately 3 weeks, 100% = plants have died
Description: Seeds of monocotyledonous or dicotyledonous weed plants or crop plants are placed in sandy loam in wood fiber pots and covered with soil. […] After approximately 3 weeks, the activity of the preparation is scored visually in comparison with untreated controls (herbicidal activity in percent (%): 100% activity=plants have died, 0% activity=like control plants). […]
Write down the numeric answer in % and omit the unit.

Take a look at these entries with their results.
COc1cc(C)nc(NC(=O)NS(=O)(=O)c2cnccc2C2=NOCCO2)n1 [Ia-9] = 90
Cc1cc(C)nc(NC(=O)NS(=O)(=O)c2cnccc2C2=NOCCO2)n1 [Ia-3] = 80
COc1cc(OC)nc(NC(=O)NS(=O)(=O)c2cnccc2C2=NOCCO2)n1 [Ia-2] = 90

Turning now to a further molecule:
Q: Fill blank: measured herbicidal activity in percent, VIOTR of the molecule COc1cc(OC)nc(NC(=O)NS(=O)(=O)c2cccnc2C2=NOCCO2)n1 [Ic-1] is ____.
A: 80

---

Test system: Velvetleaf (Abutilon theophrasti)
Assay: Post-emergence herbicidal activity, ABUTH
Type: in vivo
Conditions: one-leaf stage, 80 g/ha, scored visually after approximately 3 weeks, 100% = plants have died
Measured quantity: herbicidal activity in percent, ABUTH (%)
Express the result in % but write the number alone.

Sample answers from the record:
COc1cc(C)nc(NC(=O)NS(=O)(=O)c2cnccc2C2=NOCCO2)n1 = 90
COc1cc(OC)nc(NC(=O)NS(=O)(=O)c2cnccc2C2=NOCCO2)n1 = 90
COc1cc(OC)nc(NC(=O)NS(=O)(=O)c2cccnc2C2=NOCCO2)n1 = 80

As a next step, examine the molecule that follows.
Q: Endpoint output: herbicidal activity in percent, ABUTH of `Cc1cc(C)nc(NC(=O)NS(=O)(=O)c2cnccc2C2=NOCCO2)n1` . Value?
A: 90
